Tested on: 454973-116-R2-J3-PDC spheroids, viability, % test/control;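 note: spheroids exposed to compounds for seven days; 100% = DMSO vehicle control viability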
Test: Anticancer human tumor 454973-116-R2-J3-PDC patient-derived pancreatic carcinoma cell line growth inhibition [GQUAD]; active = viability on the fitted dose curve at most 10% of control; inactive = the rest
Details: second compound 0.0316 µM; first compound 1 µM; spheroids with HUVEC and MSC
Outcome field: choose from class 1 (active), class 0 (inactive)

IN: So what was the verdict on CC(=O)O[C@H]1C(=O)[C@@]2(C)[C@H]([C@H](OC(=O)c3ccccc3)[C@]3(O)C[C@H](OC(=O)[C@H](O)[C@@H](NC(=O)c4ccccc4)c4ccccc4)C(C)=C1C3(C)C)[C@]1(OC(C)=O)CO[C@@H]1C[C@@H]2O + Cc1cnc(CNC(=O)c2c(=O)c3ccc(N4CCCN(C)CC4)nc3n3c2sc2ccccc23)cn1 in this test?
OUT: class 1

IN: Try this compound next: CC1COCCN1c1cc(C2(S(C)(=N)=O)CC2)nc(-c2ccnc3[nH]ccc23)n1 (stereo not given) + Cc1cnc(CNC(=O)c2c(=O)c3ccc(N4CCCN(C)CC4)nc3n3c2sc2ccccc23)cn1
OUT: class 0

IN: Try this compound next: O=C(c1cc(Cc2n[nH]c(=O)c3ccccc23)ccc1F)N1CCN(C(=O)C2CC2)CC1 + Cc1cnc(CNC(=O)c2c(=O)c3ccc(N4CCCN(C)CC4)nc3n3c2sc2ccccc23)cn1
OUT: class 0

IN: Try this compound next: Nc1ccn(C2OC(CO)C(O)C2(F)F)c(=O)n1 (stereo not given) + Cc1cnc(CNC(=O)c2c(=O)c3ccc(N4CCCN(C)CC4)nc3n3c2sc2ccccc23)cn1
OUT: class 0

IN: Try this compound next: O=c1[nH]cc(F)c(=O)[nH]1 + Cc1cnc(CNC(=O)c2c(=O)c3ccc(N4CCCN(C)CC4)nc3n3c2sc2ccccc23)cn1
OUT: class 0

IN: Try this compound next: CC(=O)O[C@H]1C(=O)[C@@]2(C)[C@H]([C@H](OC(=O)c3ccccc3)[C@]3(O)C[C@H](OC(=O)[C@H](O)[C@@H](NC(=O)c4ccccc4)c4ccccc4)C(C)=C1C3(C)C)[C@]1(OC(C)=O)CO[C@@H]1C[C@@H]2O + CN(C)c1ccc(Nc2c3ccc(NC(=O)CCN4CCCC4)cc3nc3cc(NC(=O)CCN4CCCC4)ccc23)cc1
OUT: class 1

IN: Try this compound next: COc1cc(C2c3cc4c(cc3C(OC3OC5COC(C)OC5C(O)C3O)C3COC(=O)C23)OCO4)cc(OC)c1O (stereo not given) + Cc1[nH]c2ccc(F)cc2c1-c1nc2c3cccnc3c3ncccc3c2[nH]1
OUT: class 0

IN: Try this compound next: C=CCn1c(=O)c2cnc(Nc3ccc(N4CCN(C)CC4)cc3)nc2n1-c1cccc(C(C)(C)O)n1 + Cc1[nH]c2ccc(F)cc2c1-c1nc2c3cccnc3c3ncccc3c2[nH]1
OUT: class 0

IN: Try this compound next: O=C(NO)c1cnc(N2CCN(S(=O)(=O)c3ccc4ccccc4c3)CC2)nc1 + Cc1[nH]c2ccc(F)cc2c1-c1nc2c3cccnc3c3ncccc3c2[nH]1
OUT: class 1

IN: Try this compound next: O=C(c1cc(Cc2n[nH]c(=O)c3ccccc23)ccc1F)N1CCN(C(=O)C2CC2)CC1 + CN(C)c1ccc(Nc2c3ccc(NC(=O)CCN4CCCC4)cc3nc3cc(NC(=O)CCN4CCCC4)ccc23)cc1
OUT: class 0
